# MEASURED ON: CXCR-4 transfected U87 cell line (U87.CXCR4) (Homo sapiens, UniProt P61073)
# Sequence (P61073 whole entry): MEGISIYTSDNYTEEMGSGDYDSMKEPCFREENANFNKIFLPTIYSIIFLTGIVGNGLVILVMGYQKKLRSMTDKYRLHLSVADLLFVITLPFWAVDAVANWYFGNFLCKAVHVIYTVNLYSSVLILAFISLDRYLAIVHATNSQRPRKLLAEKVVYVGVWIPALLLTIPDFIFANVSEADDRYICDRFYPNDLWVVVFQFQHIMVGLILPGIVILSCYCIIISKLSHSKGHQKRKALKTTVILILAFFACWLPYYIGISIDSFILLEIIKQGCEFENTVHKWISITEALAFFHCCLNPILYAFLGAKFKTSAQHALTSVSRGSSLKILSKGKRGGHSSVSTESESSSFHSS
# ASSAY METHOD TEXT: Intracellular CXCL-12-induced calcium mobilization assay (FLIPR)
# EXPERIMENTAL CONDITIONS: U87.CXCR4 cells; CXCL-12 25-50 ng/mL; compounds added 15 minutes before; read-out: IC50 CXCL-12 Ca2+ flux U87.CXCR4+
MEASURE: IC50

                                   compound  measure  value_measured
0         Cc1cccnc1CN(CCc1c[nH]cn1)Cc1nccs1     IC50       ≥ 1000 nM
1  Cc1cccnc1CN(CCc1c[nH]cn1)Cc1nc2ccc(F)cc2n1C     IC50  100 to 1000 nM
2  CC(c1ccccn1)N(CCC(N)=O)Cc1ccccn1 (stereo not shown)     IC50       ≥ 1000 nM
3   Cc1cccnc1CN(CCC(N)=O)[C@H]1CCCc2cccnc21     IC50       ≥ 1000 nM
4  CC(C)c1cccnc1CN(CCC(N)=O)Cc1ncccc1-c1ccccc1     IC50       ≥ 1000 nM
5     Clc1cccnc1CN(CCc1cnc[nH]1)Cc1ncccc1Cl     IC50  100 to 1000 nM

# batch size: 7; output IC50 per entry
1. Cc1cccnc1CN(CCC(N)=O)Cc1ncccc1-c1ccccc1
2. CC(C)c1cccnc1CN(CCc1cnc[nH]1)Cc1ncccc1Cl
3. c1cnc2c(c1)CCC[C@@H]2N(CCC1CCCO1)Cc1nc2ccccc2[nH]1 (stereo partly shown)
4. Cc1cccnc1CN(CCc1c[nH]cn1)[C@H]1CCCc2cccnc21
5. Clc1cccnc1CN(CCc1c[nH]cn1)[C@H]1CCCc2cccnc21
6. CC(C)c1cccnc1CN(CCC(N)=O)[C@H]1CCCc2cccnc21
7. CC(c1ccccn1)N(CCc1cnc[nH]1)Cc1nc2ccccc2[nH]1 (stereo not shown)

Found:
≥ 1000 nM
100 to 1000 nM
≥ 1000 nM
≥ 1000 nM
≥ 1000 nM
≥ 1000 nM
≥ 1000 nM

Could you tell me IC50 for each of these compounds? They are listed below.
1. Cc1cccnc1CN(CCC(N)=O)C(C)c1ccccn1 (stereo not shown)
2. Cc1cccnc1CN(CCc1ccccn1)C(C)c1ccccn1 (stereo not shown)
3. Cc1cccnc1CN(CCc1ccccn1)Cc1ncccc1Cl
4. CC(=O)NCCCN(Cc1ncccc1C)[C@H]1CCCc2cccnc21
5. COc1ccnc(CCN(Cc2ncccc2C)Cc2ncccc2C)c1
6. COc1cccc(CCN(Cc2ncccc2C)Cc2ncccc2C)n1

Found:
1: ≥ 1000 nM; 2: 100 to 1000 nM; 3: 100 to 1000 nM; 4: ≥ 1000 nM; 5: ≥ 1000 nM; 6: 0.01 to 100 nM

---

# MEASURED ON: Jurkat cells expressing CXCR4 (Homo sapiens)
# Construct: Jurkat cells expressing CXCR4; endogenous in cells; host or cells: Jurkat cells
# Sequence (P61073 whole entry): as above
# ASSAY METHOD TEXT: Chemokine (CXCL12-AF647) binding inhibition assay
# EXPERIMENTAL CONDITIONS: CXCL12-AF647 25 ng/mL, read-out: IC50 CXCL-12 binding Jurkat
pIC50: −log10 of the molar value.
I'd appreciate it if you could supply pIC50 values for the items below.

                                   molecule                               measured_on  measure  value_measured
0  CC(c1ccccn1)N(CCC(N)=O)Cc1nc2ccccc2[nH]1 (stereo not shown) [Compound I-12]  Jurkat cells expressing CXCR4 (Homo sapiens)    pIC50    6.00 to 7.00

Hey, can you go through the list below and give me pIC50 for every item?
1. Cc1cccnc1CN(CCc1cnc[nH]1)Cc1ncccc1Cl [Compound I-10]
2. NC(=O)CCN(Cc1nccc2ccccc12)[C@H]1CCCc2cccnc21 [Compound I-49]
3. CC(C)c1cccnc1CN(CCc1cnc[nH]1)Cc1ncccc1C(C)C [Compound I-38]
4. CC(c1ccccn1)N(CCc1cnc[nH]1)Cc1ccccn1 (stereo not shown) [Compound I-6]
5. Cc1cccnc1CN(CCC(N)=O)Cc1ncccc1C [Compound I-14]
6. Clc1cccnc1CN(CCc1cnc[nH]1)Cc1nccc2ccccc12 [Compound I-37]
7. Cc1cccnc1CN(CCn1ccccc1=O)Cc1ncccc1C [Compound I-58]

Found:
1: 7.00 to 11.00; 2: 7.00 to 11.00; 3: 6.00 to 7.00; 4: 7.00 to 11.00; 5: 6.00 to 7.00; 6: 7.00 to 11.00; 7: 6.00 to 7.00

Respectfully, I request pIC50 for each entry included below.
1. NC(=O)CCN(Cc1ncccc1-c1ccccc1)[C@H]1CCCc2cccnc21 [Compound I-51]
2. CC(C)c1cccnc1CN(CCc1cnc[nH]1)Cc1ncccc1Cl [Compound I-35]
3. Clc1cccnc1CN(CCc1c[nH]cn1)[C@H]1CCCc2cccnc21 [Compound I-27]
4. c1cnc2c(c1)CCC[C@@H]2N(CCC1CCCCO1)Cc1nc2ccccc2[nH]1 (stereo partly shown) [Compound I-16]
5. Clc1cccnc1CN(CCc1cnc[nH]1)Cc1ncccc1Cl [Compound I-28]

Found:
1: 7.00 to 11.00; 2: 7.00 to 11.00; 3: 7.00 to 11.00; 4: 6.00 to 7.00; 5: 7.00 to 11.00

---

# ASSAY METHOD TEXT: in vitro
# EXPERIMENTAL CONDITIONS: human, Caco-2, pH 7.4
# Protocol: The goal of this assay was to evaluate the intestinal absorption potential of drug candidates using Caco-2 cell lines. Experimental Procedure • 1. Pre-warm Pre-warm HBSS Buffer in 37° C. water bath • 2. Sonicate Take compounds from −20° C., sonicate for a few minutes (no less than 1 minute) • 3. Solution preparation […]
Give measured Papp A→B at 90 min, 10 μM for each item. Keep answers brief.

Answered examples (5):
>>> df
                                   compound                    measure      value_measured
0  c1cnc2c(c1)CCC[C@@H]2N(CCC1CCCCO1)Cc1nc2ccccc2[nH]1 (stereo partly shown) [Compound I-16]  Papp A→B at 90 min, 10 μM     > 10 ×10⁻⁶ cm/s
1  c1cnc2c(c1)CCC[C@@H]2N(CCc1cscn1)Cc1nc2ccccc2[nH]1 [Compound I-20]  Papp A→B at 90 min, 10 μM     > 10 ×10⁻⁶ cm/s
2  CC(C)c1cccnc1CN(CCc1cnc[nH]1)Cc1ncccc1C(C)C [Compound I-38]  Papp A→B at 90 min, 10 μM  5 to 10 ×10⁻⁶ cm/s
3  Cc1cccnc1CN(CCc1cnc[nH]1)Cc1nccc2ccccc12 [Compound I-36]  Papp A→B at 90 min, 10 μM      < 5 ×10⁻⁶ cm/s
4  Cc1cccnc1CN(CCC(N)=O)Cc1ncccc1-c1ccccc1 [Compound I-46]  Papp A→B at 90 min, 10 μM     > 10 ×10⁻⁶ cm/s

Provide each entry's Papp A→B at 90 min, 10 μM from the list below.
1. CC(c1ccccn1)N(CCc1cnc[nH]1)Cc1ccccn1 (stereo not shown) [Compound I-6]
2. Cc1cccnc1CN(CCC(N)=O)C(C)c1ccccn1 (stereo not shown) [Compound I-13]
3. CC(C)c1cccnc1CN(CCc1cnc[nH]1)Cc1ncccc1Cl [Compound I-35]
4. COc1ccc(CCN(Cc2ncccc2C)Cc2ncccc2C)nc1 [Compound I-32]
5. CC(c1ccccn1)N(CCC(N)=O)Cc1nc2ccccc2[nH]1 (stereo not shown) [Compound I-12]
6. Cc1cccnc1CN(CCc1c[nH]cn1)Cc1nccs1 [Compound I-52]

Found:
1. < 5 ×10⁻⁶ cm/s
2. > 10 ×10⁻⁶ cm/s
3. > 10 ×10⁻⁶ cm/s
4. > 10 ×10⁻⁶ cm/s
5. < 5 ×10⁻⁶ cm/s
6. 5 to 10 ×10⁻⁶ cm/s

List the reported Papp A→B at 90 min, 10 μM of each compound below.
1. Cc1cccnc1CN(CCC(N)=O)Cc1ncccc1C [Compound I-14]
2. CC(c1ccccn1)N(CCc1ccccn1)Cc1nc2ccccc2[nH]1 (stereo not shown) [Compound I-2]
3. Cc1cccnc1CN(CCc1cnc[nH]1)C(C)c1ccccn1 (stereo not shown) [Compound I-8]

Found:
1. > 10 ×10⁻⁶ cm/s
2. > 10 ×10⁻⁶ cm/s
3. < 5 ×10⁻⁶ cm/s

Please report Papp A→B at 90 min, 10 μM for every entry that follows.
1. Cc1cccnc1CN(CCc1ccccn1)Cc1ncccc1Cl [Compound I-5]
2. Cc1cccnc1CN(CCc1c[nH]cn1)Cc1nc2c(F)cccc2n1C [Compound I-43]
3. Cc1cccnc1CN(CCc1cnc[nH]1)Cc1ncccc1C(C)C [Compound I-34]

Found:
1: > 10 ×10⁻⁶ cm/s; 2: 5 to 10 ×10⁻⁶ cm/s; 3: 5 to 10 ×10⁻⁶ cm/s

Hi! Can you tell me Papp A→B at 90 min, 10 μM for each of these compounds?
1. OCCN(Cc1nc2ccccc2[nH]1)[C@H]1CCCc2cccnc21 [Compound I-55]
2. Cc1cccnc1CN(CCc1ccccn1)Cc1ncccc1C [Compound I-4]

Found:
["> 10 ×10⁻⁶ cm/s", "> 10 ×10⁻⁶ cm/s"]

// data source = patent US20210009557A1
